# Tested on: HeLa
# procedureDetails: Induction of apoptosis in human HeLa cells assessed as increase in caspase-3 activity by measuring pNA release level at 12 uM incubated for 4 hrs using c-DEVD-pNA substrate by colorimetric assay
# Type: functional
measuredQuantity: Activity (nmol/min/mL)
Answer format: numeric, nmol/min/mL implied, no suffix.

Activity lookup needed for `CC1=C(CO)C(=O)O[C@@H]([C@@H](C)[C@H]2CC[C@H]3[C@@H]4C[C@H]5O[C@]56[C@@H](O)C=CC(=O)[C@]6(C)[C@H]4CC[C@]23C)C1` , thanks.
0.41

Entry `CC1=C(COC(=O)c2ccccc2)C(=O)O[C@@H]([C@@H](C)[C@H]2CC[C@H]3[C@@H]4C[C@H]5O[C@]56C(=O)C=CC(=O)[C@]6(C)[C@H]4CC[C@]23C)C1` please
0.4

Entry `CC1=C(COC(=O)c2ccccc2)C(=O)O[C@@H]([C@@H](C)[C@H]2CC[C@H]3[C@@H]4C[C@H]5O[C@]56[C@@H](O)C=CC(=O)[C@]6(C)[C@H]4CC[C@]23C)C1` please
0.52

One more compound: `CCC(=O)OCC1=C(C)C[C@H]([C@@H](C)[C@H]2CC[C@H]3[C@@H]4C[C@H]5O[C@]56[C@@H](OC(=O)CC)C=CC(=O)[C@]6(C)[C@H]4CC[C@]23C)OC1=O`
1.1

Can you check `CC1=C(COC(=O)c2ccoc2)C(=O)O[C@@H]([C@@H](C)[C@H]2CC[C@H]3[C@@H]4C[C@H]5O[C@]56[C@@H](O)C=CC(=O)[C@]6(C)[C@H]4CC[C@]23C)C1` next?
0.68

Same thing, different compound: `CC1=C(COC(=O)C(C)(C)C)C(=O)O[C@@H]([C@@H](C)[C@H]2CC[C@H]3[C@@H]4C[C@H]5O[C@]56[C@@H](O)C=CC(=O)[C@]6(C)[C@H]4CC[C@]23C)C1`
0.61

Lookup `CC1=C(COC(=O)C(C)(C)C)C(=O)O[C@@H]([C@@H](C)[C@H]2CC[C@H]3[C@@H]4C[C@H]5O[C@]56[C@@H](OC(=O)C(C)(C)C)C=CC(=O)[C@]6(C)[C@H]4CC[C@]23C)C1`
0.25

Moving on to the next compound: `CC(=O)OCC1=C(C)C[C@H]([C@@H](C)[C@H]2CC[C@H]3[C@@H]4C[C@H]5O[C@]56[C@@H](OC(C)=O)C=CC(=O)[C@]6(C)[C@H]4CC[C@]23C)OC1=O`
0.42

Input `CCC(=O)OCC1=C(C)C[C@H]([C@@H](C)[C@H]2CC[C@H]3[C@@H]4C[C@H]5O[C@]56[C@@H](O)C=CC(=O)[C@]6(C)[C@H]4CC[C@]23C)OC1=O`
0.52

And `CCCC(=O)OCC1=C(C)C[C@H]([C@@H](C)[C@H]2CC[C@H]3[C@@H]4C[C@H]5O[C@]56[C@@H](O)C=CC(=O)[C@]6(C)[C@H]4CC[C@]23C)OC1=O` ?
0.72

Do the same for `CCCC(=O)OCC1=C(C)C[C@H]([C@@H](C)[C@H]2CC[C@H]3[C@@H]4C[C@H]5O[C@]56[C@@H](OC(=O)CCC)C=CC(=O)[C@]6(C)[C@H]4CC[C@]23C)OC1=O` please
0.61

Source: ChEMBL document CHEMBL4190346
